- PROCEDURE_TEXT: JHH-DIPG-1 glioma cell viability, MIPE5.0 library, CellTiter-Glo luminescence, qHTS (AID 1347067);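 further: cells exposed to compound for 48 hours before readout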
- CONDITION_NOTES: JHH-DIPG-1 glioma viability, CellTiter-Glo ATP luminescence
Results filed as inconclusive are left out. The source made the active and inactive calls. Cut-off not given; nearly all actives show AC50 up to about 26 µM.
Valid outcomes are listed here; reply with one: active, inactive

Cc1cccc(-c2[nH]ncc2-c2ccc3ncccc3n2)n1 : inactive

Assay outcome for COCCNCc1ccc(-c2cc3nccc(Oc4ccc(NC(=O)C5(C(=O)Nc6ccc(F)cc6)CC5)cc4F)c3s2)nc1 : what was it? active

Assay outcome for CC(=O)N1CCC[C@H]1C(=O)N[C@@H](Cc1cnc[nH]1)C(=O)N[C@@H](CO)C(=O)N[C@@H](CS)C(=O)N[C@@H](CC(N)=O)C(N)=O : what was it? inactive

Assay outcome for O=C(NOCC(O)CO)c1cc(Br)c(F)c(F)c1Nc1ccc(I)cc1F (centres undefined) : what was it? active

====

- PROCEDURE_TEXT: viability loss in pontine glioma line – cell-based, SU-DIPG-XVII, MIPE5.0, CellTiter-Glo, qHTS, dose response (AID 1347060);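 on AC50: cells exposed to compound for 48 hours before viability readout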
- CONDITION_NOTES: CellTiter-Glo ATP luminescence
Records with an inconclusive call do not appear. Calls of active or inactive are those of the source. The limit is not given here; nearly all actives have AC50 up to about 26 µM.
Valid outcomes are listed here; reply with one: Y = active, N = inactive

Look over these answered cases.
CCc1nc(C(N)=O)c(Nc2ccc(N3CCC(N4CCN(C)CC4)CC3)c(OC)c2)nc1NC1CCOCC1 : Y
Cc1nc(NC(=O)N2CCC[C@H]2C(N)=O)sc1-c1csc(C(C)(C)C)n1 : Y
C=CC(=O)N[C@H]1CN(c2nc(Nc3cn(C)nc3OC)c3ncn(C)c3n2)C[C@@H]1F : Y
Cc1cc(OCCCc2c3n(c4c(-c5c(C)nn(C)c5C)c(Cl)ccc24)[C@H](C)CN(c2cn(C)c4ccc(C(=O)O)cc24)C3=O)cc(C)c1Cl : Y
CN1CCN(c2ncc(-c3cc(Cl)cc(Cl)c3Cl)c(N)n2)CC1 : N

Assay outcome for CC(=O)Nc1ccc([C@H](C)C(=O)Nc2ncc(C(C)C)s2)cc1 : what was it? Y

Assay outcome for CSc1ccc(C(=O)/C=C/c2cc(C)c(OC(C)(C)C(=O)O)c(C)c2)cc1 : what was it? N

Assay outcome for CC(C)(F)C[C@H](N[C@@H](c1ccc(-c2ccc(S(C)(=O)=O)cc2)cc1)C(F)(F)F)C(=O)NC1(C#N)CC1 : what was it? N

Assay outcome for CC(C)Oc1ccc(-c2nc(-c3cccc4c3CC[C@@H]4NCCO)no2)cc1C#N : what was it? Y

====

- PROCEDURE_TEXT: growth inhibition, single agents and combos, LFS_MB_2R, cell-based, cisplatin combos, synergistic combos for chromothripsis tumors (AID 1671457);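 further: cells exposed to compound for four days before readout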
- CONDITION_NOTES: LFS_MB_2R medulloblastoma cells, measured here: combination with cisplatin, at 5 µM, stronger effect = higher value
// reported inhibition per item
Numbers only; they are read as %.

Check out these entries, answers already filled in.
Cc1ccc2nc(NCCN)c3ncc(C)n3c2c1 : 15.9
N=C1CCCN1Cc1[nH]c(=O)[nH]c(=O)c1Cl : -54.2
CN(C)C/C=C/C(=O)Nc1ccc(C(=O)Nc2cccc(Nc3ncc(Cl)c(-c4c[nH]c5ccccc45)n3)c2)cc1 : 91.1
Cc1ccc([N+](=O)[O-])cc1S(=O)(=O)N(C)/N=C/c1cnc2ccc(Br)cn12 : 90.7

Please report the measured inhibition for Nc1ccc(-c2ccc3ncc4ccc(=O)n(-c5cccc(C(F)(F)F)c5)c4c3c2)cn1 76.8

Please report the measured inhibition for O=C(COc1cccc2c(=O)[nH]ccc12)c1ccccc1 -11.3

Please report the measured inhibition for CN(C)CCN1C(=O)c2cccc3cc(N)cc(c23)C1=O -2.51

Please report the measured inhibition for CC(=O)Nc1ccc(C(=O)Nc2ccccc2N)cc1 50.6

Please report the measured inhibition for O=C(/C=C/c1ccc(CN(CCO)CCc2c[nH]c3ccccc23)cc1)NO 107

====

- PROCEDURE_TEXT: viability loss with induced miR-34 in A549 – imaging, A549 dox-inducible miR-34, nuclei and caspase counts, primary screen (AID 1347080)
- CONDITION_NOTES: A549 miR-34 inducible, Hoechst nuclei count, 48 h; measured here: relative caspase fold change +Dox/-Dox
// reported fold change per item
The answer should be a number; do not append a unit.

C[N+](C)(C)CCCCCNCC12CC3CC(CC(C3)C1)C2 : 0.772
CCCCC[C@H](O)/C=C/[C@@H]1[C@@H](C/C=C\CCCCO)[C@@H](O)C[C@H]1O : 1.35
COc1cc2c(cc1OC)C(c1ccc(N)cc1)=NNC(=O)C2 : 0.53
CC1=C(/C=C/C(=C/C=C/C(C)=C/C(=O)O)c2ccc(C)cc2)C(C)(C)CCC1 : 1.77
CCCCC[C@H](O)/C=C/[C@H]1[C@@H](O)CC(=O)[C@@H]1CCCCCCC(=O)O : 1.07
BrC1C(Br)C(Br)C(Br)C(Br)C1Br (stereo not given) : 1.17
c1ccc2cc(C3=NCCN3)ncc2c1 : 0.685
CC(C)Oc1cccc(-n2c(CCc3c[nH]c4ccc(Br)cc34)nc3ccccc3c2=O)c1 : 0.884
CC[C@H](CO)Nc1nc(NCc2ccccc2)c2ncn(C(C)C)c2n1 : 1.07

Now for another entry.
Please report the measured fold change for CCCCC[C@H](O)/C=C/[C@@H]1[C@H](CCCCCCC(=O)O)[C@H](O)C[C@H]1O 1.17

====

// reported fold change per item
- PROCEDURE_TEXT: viability loss with induced miR-34 in A549 – imaging, A549 dox-inducible miR-34, nuclei and caspase counts, primary screen (AID 1347080)
- CONDITION_NOTES: A549 miR-34 inducible, Hoechst nuclei count, 48 h; stronger effect = lower value; cell number ratio, induced over uninduced
The answer should be a number; do not append a unit.

Check out these entries, answers already filled in.
Cc1coc2c1C(=O)C(=O)c1c-2ccc2c(C)cccc12 : 0.847
c1ccc2sc(N3CCN(Cc4ccc5c(c4)OCO5)CC3)nc2c1 : 0.958
CC(=O)N1CCN(C)CC1 : 0.971
CCCCCCCCCCCCCCCC(=O)NC(C)C : 1.13
S=C(NCc1ccc2c(c1)OCO2)N1CCN(c2ncnc3c2oc2ccccc23)CC1 : 0.868

Now for another entry.
Please report the measured fold change for CCCCC[C@H](O)/C=C/[C@@H]1C(C/C=C\CCCCN(C)C)[C@@H](O)C[C@H]1O (stereo partly specified) 0.95

====

- PROCEDURE_TEXT: JHH-DIPG-1 glioma cell viability, MIPE5.0 library, CellTiter-Glo luminescence, qHTS (AID 1347067);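 further: cells exposed to compound for 48 hours before readout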
- CONDITION_NOTES: JHH-DIPG-1 glioma viability, CellTiter-Glo ATP luminescence
Records with an inconclusive call do not appear. The source made the active and inactive calls. No cut-off is given here; in the data, nearly all actives have AC50 up to about 26 µM.
Valid outcomes are listed here; reply with one: t = active, f = inactive

CC[C@H](NC(=O)[C@H](C)NC)C(=O)N1C[C@@H](O)C[C@H]1Cc1c(-c2[nH]c3cc(F)ccc3c2C[C@@H]2C[C@H](O)CN2C(=O)[C@H](CC)NC(=O)[C@H](C)NC)[nH]c2cc(F)ccc12 : f
CC(C)c1c2cc(-c3ccnc(NC4CCC(NC5CCOCC5)CC4)n3)ccc2nn1C (stereo not drawn) : t

Assay outcome for CS(=O)(=O)N(Cc1ccco1)CC(O)Cn1c2ccccc2c2ccccc21 (stereo not drawn) : what was it? f

Assay outcome for CC(C)(C)c1cc(NC(=O)Nc2ccc(-c3cn4c(n3)sc3cc(OCCN5CCOCC5)ccc34)cc2)no1 : what was it? t

====

// reported viability per item
- PROCEDURE_TEXT: drug combination growth inhibition, ovarian cancer – cell-based, oncology-focused library, rucaparib conditional, profiling panel (AID 1508598)
- CONDITION_NOTES: patient-derived ovarian cancer cells, CellTiter-Glo viability, 144 h; at 0.0195 µM; OCI-P5x cells; with rucaparib 20 µM; stronger effect = lower value; 100% = cells with rucaparib alone
Numbers only; they are read as %.

Check out these entries, answers already filled in.
Cc1ccc2c(=O)c3cccc(CC(=O)O)c3oc2c1C : 107
Cc1ccc(-c2csc(NC(=O)c3ccccc3)n2)c(C)c1 : 102
CCN1CCN(Cc2ccc(-c3cc4c(N[C@H](C)c5ccccc5)ncnc4[nH]3)cc2)CC1 : 98
Cc1ccc([C@@H]2O[C@H](CO)[C@@H](O)[C@H](O)[C@H]2O)cc1Cc1ccc(-c2ccc(F)cc2)s1 : 108
CN(C)CC[C@H](CSc1ccccc1)Nc1ccc(S(=O)(=O)NC(=O)c2ccc(N3CCN(Cc4ccccc4-c4ccc(Cl)cc4)CC3)cc2)cc1[N+](=O)[O-] : 140
O=C(/C=C/c1cccc(S(=O)(=O)Nc2ccccc2)c1)NO : 90.8
O=c1cc(N2CCOCC2)oc2c(-c3cccc4c3sc3ccccc34)cccc12 : 107
COc1ccc(-c2ccc3c(N4CCOC[C@@H]4C)nc(N4CCOC[C@@H]4C)nc3n2)cc1CO : 72.9

Now for another entry.
Please report the measured viability for CC(C)(C)c1cc(NC(=O)Nc2ccc(-c3cn4c(n3)sc3cc(OCCN5CCOCC5)ccc34)cc2)no1 103
